B1: EEHEE_rd3_0130 (parent)
chain: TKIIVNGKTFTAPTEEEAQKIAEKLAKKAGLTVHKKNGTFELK

Variants of: B1
Assay: folding stability dG (cDNA display proteolysis); higher = more stable
Settings: PBS, room temperature
Items are presented alongside their recorded folding stability dG.
OUTCOME MEASURE: folding stability dG

1. TKIIVNGKTFTAPTEESAQKIAEKLAKKAGLTVHKKNGTFELK	0.635 kcal/mol
2. TKIIVNGKTFVAPTEEEAQKIAEKLAKKAGLTVHKKNGTFELK	0.762 kcal/mol
3. TKIIVYGKTFTAPTEEEAQKIAEKLAKKAGLTVHKKNGTFELK	1.42 kcal/mol
4. TKIIVNGKTFTAPTEEEAQKILEKLAKKAGLTVHKKNGTFELK	0.301 kcal/mol
5. TKIIVNGKTFTAPTEEEIQKIAEKLAKKAGLTVHKKNGTFELK	-0.353 kcal/mol
6. TKIIVNGKIFTAPTEEEAQKIAEKLAKKAGLTVHKKNGTFELK	1.01 kcal/mol
7. TKIIVNGKTFTAPTEEEAQKIAEKLAKKAGLTVHPKNGTFELK	-0.427 kcal/mol
8. TKIIVNGKTFTAPTEEEAQKIAEKLAKKAGLTVHTKNGTFELK	0.197 kcal/mol
9. TKIIVNGKTFTAPTEEEAQKIAEKLAKKAGLTVHKDNGTFELK	0.477 kcal/mol
10. TKIIVNGKTFTAPTEEEAQKIAEKLAKKAILTVHKKNGTFELK	-0.078 kcal/mol
11. TKIIVNGKTFTAPTEEEADKIAEKLAKKAGLTVHKKNGTFELK	-0.048 kcal/mol
12. TKIIVNGKTFTAPTEEEAQKIAEKLAKKAGWTVHKKNGTFELK	0.742 kcal/mol
13. TKIIVNGKTFTAPTEEEAQKIAEKLAKVAGLTVHKKNGTFELK	0.795 kcal/mol
14. TKIIVNGKTFTAPTEEEAQTIAEKLAKKAGLTVHKKNGTFELK	0.562 kcal/mol
15. TKIIVNGKTFTAPTEEEAQKIAEKLAKKAGLTVWKKNGTFELK	0.405 kcal/mol
16. TKIIVNGVTFTAPTEEEAQKIAEKLAKKAGLTVHKKNGTFELK	0.864 kcal/mol
17. TKIIVNGKTFTAPSEEEAQKIAEKLAKKAGLTVHKKNGTFELK	0.86 kcal/mol
18. TKIIVNGKTFTAPTEEEAQNIAEKLAKKAGLTVHKKNGTFELK	0.548 kcal/mol
19. TKIIVNGKTFTAPTEEEAQKIAEKLAKKAGLTVHKKNKTFELK	-0.088 kcal/mol
20. TKIIVNGKTFTAPTEEEAQKIAEKLAKKAMLTVHKKNGTFELK	0.018 kcal/mol
21. TKIIVNGKTFTAPTEEEAQKIAEKLAKKAELTVHKKNGTFELK	-0.258 kcal/mol
22. TKIIVNGKTFTAPTEEEAQKIAEKLAKKAGLTVHKKNGTMELK	0.218 kcal/mol

Reference source: the MegaScale stability set (Tsuboyama et al. 2023)
